# test-summary: qHTS assay to identify small molecule antagonists of the constitutive androstane receptor (CAR) signaling pathway - cell viability counter screen (AID 1224837); further: nearly all actives have a fitted effect of over 45% in size
# conditions-used: HepG2-CYP2B6-hCAR viability, CellTiter-Fluor, 23 h, co-treated with 50 nM CITCO; series mostly up to 92.4 µM
Inconclusive results are not listed. The source made the active and inactive calls. The call rests on the fitted dose curve; in most records, active means well fitted cell-killing curve with a large enough effect in the repeat runs; inconclusive means weak or mixed curves, or effect the other way; inactive means flat fitted curve, though single readings scatter.
reported-endpoint: outcome

1) COc1ccc(/C=C/C(=O)c2ccc(OC)cc2OC)cc1 | inactive
2) CC(C)(C(=O)c1cccnc1)c1cccnc1 | inactive
3) CC(C)N=C=NC(C)C | inactive
4) Cc1ccccc1S(N)(=O)=O | inactive
5) O=C(NS(=O)(=O)/C=C/c1ccccc1)c1ccc(F)cc1Cl | inactive
6) Cc1cc(CCCOc2c(C)cc(-c3noc(C(F)(F)F)n3)cc2C)on1 | inactive
7) C=C(C)C(=O)OCCC(F)(F)C(F)(F)C(F)(F)C(F)(F)C(F)(F)C(F)(F)F | inactive
8) CC(CN(CCN(CC(C)OCCO)CC(C)OCCO)CC(C)OCCO)OCCO (stereo not drawn) | inactive
9) O=c1[nH]c2cc(C(F)(F)F)c(N3CCOCC3)cc2n(CP(=O)(O)O)c1=O | inactive
10) Nc1c(Cl)cc(Cl)cc1[N+](=O)[O-] | inactive
11) CC(C)(C)C1(CCc2ccc(Cl)cc2)CO1 (stereo not drawn) | inactive
12) O=C(O)CO | inactive
13) BrC(Br)C(Br)Br | inactive

* * *

# test-summary: qHTS RealTime-Glo MT Cell Viability Assay in HEK293 cells - 32 hour (AID 1224868); further: nearly all actives have a fitted effect of over 50% in size; further: potency means the concentration at half of the fitted maximal effect
# conditions-used: RealTime-Glo luminescence; series mostly up to 76.8 µM
Inconclusive results are not listed. Activity calls are given as the source filed them. Calls follow the shape of the dose curve; as a rule, active = well fitted cell-killing curve with a large enough effect in the repeat runs; inconclusive = weak or mixed curves, or effect the other way; inactive = flat fitted curve, though single readings scatter.
reported-endpoint: Potency

1) CC(=O)OCCC1CCCCC1 | inactive
2) CCc1ccc(C)cc1 | inactive
3) CC(C)C(=O)OCCOc1ccccc1 | inactive
4) COC(=O)c1sccc1S(N)(=O)=O | inactive
5) CCSC(=O)N(CC)CC | inactive
6) COc1ccc(N)c([N+](=O)[O-])c1 | inactive
7) O=C1NC(=O)c2cccc3cccc1c23 | inactive
8) CCN(CC)C(=O)N1CCN(C)CC1 | inactive
9) O=C(O)CN1C(=O)c2cccc3cccc(c23)C1=O | inactive
10) COc1cc(NS(=O)(=O)c2ccc(N)cc2)nc(C)n1 | inactive
11) CCOC(=O)C(C)O (configuration not stated) | inactive
12) CC(C)c1ccc(C#N)cc1 | 15.5 µM (active)
13) CCCCCCC(O)CCCCCCCCCCC(=O)OC (configuration not stated) | inactive
14) Cc1c[nH]c2ccccc12 | inactive
15) NC(=O)CCCCC(N)=O | inactive
16) C/C(C=O)=C\c1ccccc1 | inactive
17) CC(O)Cn1cnc2c1c(=O)n(C)c(=O)n2C (configuration not stated) | inactive
18) O=C(NC(Cc1cc(=O)[nH]c2ccccc12)C(=O)O)c1ccc(Cl)cc1 (configuration not stated) | inactive
19) CN=C(N)NC(=O)Nc1c(C)cccc1C | inactive
20) Nc1ccc(S(=O)(=O)NCc2ccccc2)cc1 | inactive
21) BrC(Br)C(Br)Br | inactive
22) CNC1CCCN(c2c(F)cc3c(=O)c(C(=O)O)cn(C4CC4)c3c2OC)C1 (configuration not stated) | inactive
23) CNS(=O)(=O)c1cc(C(=O)N2CCC(CCN3C4CCC3CC(n3c(C)nc5ccccc53)C4)(c3cccc(F)c3)CC2)c(Cl)cc1F (configuration not stated) | 5.49 µM (active)
24) CN1C(CSCC(F)(F)F)Nc2cc(Cl)c(S(N)(=O)=O)cc2S1(=O)=O (configuration not stated) | 19 µM (active)
25) CC(=O)c1ccc[nH]1 | inactive
26) CO[C@@H]1[C@@H](OC)[C@H](C)[C@@](O)(CC(=O)O)O[C@H]1[C@H](C)[C@H]1O[C@@]2(CC[C@@](C)([C@H]3CC[C@@](C)([C@@H]4O[C@@H]([C@H]5O[C@](C)(O)[C@H](C)C[C@@H]5C)C[C@@H]4OC4C[C@H](OC)[C@@H](OC)[C@H](C)O4)O3)O2)C[C@H](O)[C@H]1C (some centres not stated) | 3.01 µM (active)
27) O=[N+]([O-])c1ccc2ncccc2c1 | inactive
28) O=C(c1ccccc1)c1ccc(O)cc1 | inactive
29) O=C(c1ccccc1)C1CCC1 | inactive
30) CC(C)(O)CCc1ccccc1 | inactive
31) COc1cc(NCc2ccc3nc(N)nc(N)c3c2C)cc(OC)c1OC | 0.0268 µM (active)
32) CCN(CC)CC(=O)Nc1c(C)cccc1C(=O)OC | inactive
33) O=CNNC=O | inactive
34) CC(C)C(O)C(C)(C)CO (configuration not stated) | 0.801 µM (active)
35) CCN(Cc1cccc(S(=O)(=O)O)c1)c1ccc(C(=C2C=CC(=[N+](CC)Cc3cccc(S(=O)(=O)O)c3)C=C2)c2ccc(O)cc2S(=O)(=O)[O-])cc1 | inactive
36) CC(C)CC(O)CC(C)C | inactive
37) CCC1CCC(CCC(=O)O)C1 (configuration not stated) | inactive
38) OCC(CO)n1cnc(-c2ccc(F)cc2)c1-c1ccnc(Oc2ccccc2)n1 | inactive
39) NC(=O)c1ccccc1[N+](=O)[O-] | inactive
40) Cc1ccc(NC(=O)N(C)C)cc1NC(=O)N(C)C | inactive
41) CCCCCc1ccco1 | inactive
42) COc1cc(S(=O)(=O)Nc2ccccc2)c(OC)cc1N | inactive

* * *

# test-summary: qHTS assay to identify small molecule antagonists of the retinoid-related orphan receptor gamma (ROR-gamma) signaling pathway - cell viability counter screen (AID 1159520); further: nearly all actives have a fitted effect of over 50% in size
# conditions-used: Tet-on RORgamma CHO cells viability, ATP luminescence, 16 h; series mostly up to 92.4 µM
Results filed as inconclusive are left out. The source made the active and inactive calls. Calls follow the shape of the dose curve; as a rule, active = well fitted cell-killing curve with a large enough effect in the repeat runs; inconclusive = weak or mixed curves, or effect the other way; inactive = no such curve, though single readings can be large or run the other way.
Outcomes: class 1 (active), class 0 (inactive)

1. O=[N+]([O-])c1ccc2ncccc2c1 | class 0
2. CCN(CC)c1cccc(O)c1 | class 0
3. CC(C)COC(=O)c1ccc(O)cc1 | class 0
4. CCCCCCC(O)CCCCCCCCCCC(=O)OC (centres undefined) | class 0
5. CNCc1ccc(NC(=O)c2c[nH]c3c2C(=O)CCC3)cc1 | class 0
6. Cc1cn([C@H]2C[C@H](F)[C@@H](CO)O2)c(=O)[nH]c1=O | class 0
7. CC(C)(C)C(O)/C=C/c1ccc2c(c1)OCO2 (centres undefined) | class 0
8. Cc1ccc2c(c1[N+](=O)[O-])C(=O)c1ccccc1C2=O | class 0
9. O=C(C(=O)c1ccco1)c1ccco1 | class 0
10. CCN(Cc1cccc(S(=O)(=O)O)c1)c1ccc(C(=C2C=CC(=[N+](CC)Cc3cccc(S(=O)(=O)O)c3)C=C2)c2ccccc2S(=O)(=O)[O-])cc1 | class 1
11. CCCCC[C@H](O)/C=C/[C@H]1[C@H](O)CC(=O)[C@@H]1C/C=C\CCCC(=O)O | class 0
12. CO[C@@H]1[C@@H](OC)[C@H](C)[C@@](O)(CC(=O)O)O[C@H]1[C@H](C)[C@H]1O[C@@]2(CC[C@@](C)([C@H]3CC[C@@](C)([C@@H]4O[C@@H]([C@H]5O[C@](C)(O)[C@H](C)C[C@@H]5C)C[C@@H]4OC4C[C@H](OC)[C@@H](OC)[C@H](C)O4)O3)O2)C[C@H](O)[C@H]1C (some centres undefined) | class 1
13. CCO[Si](C)(CCCOCC1CO1)OCC (centres undefined) | class 0
14. CCN(CC)CCOC(=O)C(c1ccccc1)c1ccccc1 | class 0
15. CC(=O)OCC(C)C | class 0
16. O=P(O)(O)Oc1ccccc1 | class 0
17. CC(C(=O)O)c1ccc(C(=O)c2cccs2)cc1 (centres undefined) | class 0
18. Nc1ccn([C@H]2CS[C@@H](CO)O2)c(=O)n1 | class 0
19. CC(=O)NCCO | class 0
20. CCN(CC)CC(=O)Nc1c(C)cccc1C(=O)OC | class 0
21. O=C(O)c1cccc(C[C@@H]2COc3ccc(OCc4nc5cc(F)ccc5s4)cc3[C@@H]2O)c1 | class 0
22. CCCc1nc2c(C)cc(-c3nc4ccccc4n3C)cc2n1Cc1ccc(-c2ccccc2C(=O)O)cc1 | class 0
23. CCC(C)(C)C(=O)O | class 0
24. CCN(CC)CCNC(=O)c1cc(Cl)c(N)cc1OC | class 0
25. CCN(CC)c1ccc(C(=C2C=CC(=[N+](CC)CC)C=C2)c2ccc(S(=O)(=O)O)cc2S(=O)(=O)[O-])cc1 | class 1
26. O=C1c2ccccc2C(=O)c2c(O)ccc(O)c21 | class 0
27. COc1ccc(C(=O)NCc2ccc(OCCN(C)C)cc2)cc1OC | class 0
28. CC(=O)C(=O)CC(C)C | class 0
29. BrC(Br)C(Br)Br | class 0
30. CCSC(=O)N(CC)CC | class 0
31. Cc1ccc(S(=O)(=O)NC(=O)NC2CCCCC2)cc1 | class 0
32. ClC1=C(Cl)C1(Cl)Cl | class 0
33. CCC(CO)(CO)CO | class 0
34. O=C(Oc1ccccc1)c1ccc2ccccc2c1O | class 0
35. Cc1cccc2sc(N)nc12 | class 0
36. CCc1ccc(C)cc1 | class 0
37. CC(C)(C)CCCCCCOC(=O)c1ccccc1C(=O)OCCCCCCC(C)(C)C | class 0
38. CCCCCCC(O)CCOC(C)=O (centres undefined) | class 0
39. CCN(Cc1cccc(S(=O)(=O)O)c1)c1ccc(C(=C2C=CC(=[N+](CC)Cc3cccc(S(=O)(=O)O)c3)C=C2)c2ccc(O)cc2S(=O)(=O)[O-])cc1 | class 1
40. CC(CCc1ccc(O)cc1)NCCc1ccc(O)c(O)c1 (centres undefined) | class 0
41. COc1ccc(-n2nc(C(F)F)cc2-c2ccc(S(C)=O)cc2)cc1 (centres undefined) | class 0
42. Cc1cc(CCC(=O)OCCOCCOCCOC(=O)CCc2cc(C)c(O)c(C(C)(C)C)c2)cc(C(C)(C)C)c1O | class 0
43. C/C(C=O)=C\c1ccccc1 | class 0
44. CC(C)N=C=NC(C)C | class 0
45. CC(=O)OC(C)C[N+](C)(C)C (centres undefined) | class 0
46. CCN(CC)CCOc1ccccc1C(=O)CCc1ccccc1 | class 0
47. O=C1CC[C@@H](C(=O)O)N1 | class 0
48. C=Cc1ccc(OC(C)=O)cc1 | class 0
49. O=C(O)CCS | class 0
